The values you see were collected from paper PMC6100073.

# Test system: J774 macrophages
# test: Resazurin viability assay in J774 macrophages
# Type: cell-based
# experimental_conditions: Mus musculus, J774, 48 h, read-out: IC50 (µM) Mean ± SD J774
recorded_endpoint: IC50

> print(dat)
          smiles.record  recorded.endpoint  reported.value
1  c1ccc2cc3ccccc3cc2c1               IC50        > 400 µM

---

The following molecules are shown together with reported Slope (nM·min^−1) Mean ± SD of XO/Fe^3+ complex formation values.
# test: Xylenol orange assay: reaction of endoperoxides with Fe2+
# experimental_conditions: 50 µM compound, 250 µM FeSO4, 125 µM xylenol orange, methanol/H2O (9:1 v/v)
# Method: Xylenol orange (XO) (125 µM) and butylated hydroxytoluene (4 mM) were dissolved in methanol/H2O (9:1, v/v). FeSO4 (25 mM) in 2.5 M H2SO4 was prepared immediately before use and added, giving a final concentration of 250 µM FeSO4 in the samples. […] At these time points, the OD difference of the sample at 560 nm and 650 nm was determined using a MS1501 UV-vis diode array spectrophotometer (Shimadzu, Japan). […]
recorded_endpoint: Slope (nM·min^−1) Mean ± SD of XO/Fe^3+ complex formation (nM/min)

> print(dat)
                                   molecule  reported.value
1  CCc1ccc2c(c1)C1OOC2c2ccccc21 (centres unmarked)             146
2  CC(C)C12C=CC(C)(CC1)OO2 (centres unmarked) [Asc, ascaridole, reference compound]             608
3  c1ccc2c(c1)C1OOC2c2ccccc21 [AcEP1117, 9,10-dihydro-9,10-epidioxidoanthracene]              77
4            CC12OOC(C)(c3ccccc31)c1ccccc12            2940
